The following compounds are shown together with reported DC50 values.
Biological target: KRAS G12D (Homo sapiens, UniProt P01116, G12D)
Construct: host or cells: AsPC-1 human pancreatic cancer cells
Sequence (P01116 1-188 isoform P01116-2 G12D): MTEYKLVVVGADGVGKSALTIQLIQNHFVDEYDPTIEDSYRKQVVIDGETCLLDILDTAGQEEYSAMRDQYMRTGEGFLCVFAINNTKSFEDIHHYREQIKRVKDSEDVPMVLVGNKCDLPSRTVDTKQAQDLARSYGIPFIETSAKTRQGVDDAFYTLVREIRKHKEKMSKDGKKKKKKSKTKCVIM
Assay: Test Example 1-2: KRAS degradation action in AsPC-1, Cell ELISA
Assay type: cell-based
Details: AsPC-1 cells, overnight treatment, corrected with β-actin, 0% = 10 μM Example No. 26 (Example No. 8 for Example Nos. 74 and 75)
Provide only the numeric value, understood in nM.

Qu. Given the compound Cc1ncsc1-c1ccc([C@H](CO)NC(=O)[C@@H]2C[C@@H](O)CN2C(=O)[C@H](C(C)C)n2cc(-c3ccc(COc4c(-c5c(C)c(F)cc6[nH]ncc56)c(C5CC5)cc5c(N6C[C@@H]7C[C@H]6CN7)nc(O[C@@H]6CCN(CC(F)F)C6)nc45)cc3)nn2)cc1 , what is its reported DC50?
Ans. 24

Qu. Likewise for Cc1ncsc1-c1ccc([C@H](CO)NC(=O)[C@@H]2C[C@@H](O)CN2C(=O)[C@H](C(C)C)n2cc(-c3ccc(COc4c(-c5c(C)c(F)cc6[nH]ncc56)c(C5CC5)cc5c(N6C[C@@H]7C[C@H]6CN7)nc(OC[C@H]6CCCN6C)nc45)cc3)nn2)cc1 ?
Ans. 102

Qu. Likewise for Cc1ncsc1-c1ccc([C@H](CO)NC(=O)[C@@H]2C[C@@H](O)CN2C(=O)[C@H](C(C)C)n2cc(-c3ccc(COc4c(-c5c(C)c(F)cc6[nH]ncc56)c(C5CC5)cc5c(N6C[C@@H]7C[C@H]6CN7)nc(OC[C@H]6CCOC6)nc45)cc3)nn2)cc1 [Example 52] ?
Ans. 10

Qu. Likewise for Cc1ncoc1-c1ccc([C@H](CO)NC(=O)[C@@H]2C[C@@H](O)CN2C(=O)[C@H](C(C)C)n2cc(-c3ccc(COc4c(-c5c(C)c(F)cc6[nH]ncc56)c(C5CC5)cc5c(N6C[C@@H]7C[C@H]6CN7)nc(OC6CCOCC6)nc45)cc3)nn2)cc1 ?
Ans. 53

Qu. Likewise for Cc1c(F)cc2[nH]ncc2c1-c1c(C2CC2)cc2c(N3C[C@@H]4C[C@H]3CN4)nc(OC3CCOCC3)nc2c1OCc1ccc(-c2cn([C@H](C(=O)N3C[C@H](O)C[C@H]3C(=O)N[C@@H](CO)c3ccccc3F)C(C)C)nn2)cc1 ?
Ans. 157

Qu. Likewise for Cc1ncsc1-c1ccc([C@H](CO)NC(=O)[C@@H]2C[C@@H](O)CN2C(=O)[C@H](C(C)C)n2cc(-c3ccc(COc4c(-c5c(C)c(F)cc6[nH]ncc56)c(C5CC5)cc5c(N6C[C@@H]7C[C@H]6CN7)nc(OC[C@H]6CCOC6)nc45)cc3)nn2)cc1 [Example 51] ?
Ans. 11

====

Biological target: KRAS G12D (Homo sapiens, UniProt P01116, G12D)
Construct: host or cells: AsPC-1 human pancreatic cancer cells
Experiment: Test Example 1-1: KRAS degradation action in AsPC-1, sandwich ELISA
Type: cell-based
Conditions: AsPC-1 cells, 24 hours treatment, corrected with β-actin, 0% = 10 μM Example No. 7
VALUE_KIND: DC50 (µM)
Provide only the numeric value, understood in µM.

Past entries and their recorded results:
1) Cc1c(F)cc2[nH]ncc2c1-c1c(C2CC2)cc2c(N3C[C@@H]4C[C@H]3CN4)nc(OC3CCOCC3)nc2c1OCc1ccc(-c2cn([C@H](C(=O)N3C[C@H](O)C[C@H]3C(=O)N[C@@H](CO)c3ccc(-c4ccnn4C)cc3)C(C)C)nn2)cc1 [Example 23]; 0.034
2) Cc1ncsc1-c1ccc([C@H](CO)NC(=O)[C@@H]2C[C@@H](O)CN2C(=O)[C@@H](NC(=O)c2ccc(COc3c(-c4c(C)c(F)cc5[nH]ncc45)c(C4CC4)cc4c(N5C[C@@H]6C[C@H]5CN6)nc(OC5CCOCC5)nc34)cc2)C(C)C)cc1 [Example 3]; 0.14

Qu. Look up DC50 with KRAS G12D (Homo sapiens, UniProt P01116, G12D) for this molecule: Cc1c(F)cc2[nH]ncc2c1-c1c(C2CC2)cc2c(N3C[C@@H]4C[C@H]3CN4)nc(OC3CCOCC3)nc2c1OCc1ccc(-c2cn([C@H](C(=O)N3C[C@H](O)C[C@H]3C(=O)N[C@@H](CO)c3ccc(Br)cc3)C(C)C)nn2)cc1 [Example 12]
Ans. 0.136

Qu. Likewise for Cc1ncsc1-c1ccc([C@H](CO)NC(=O)[C@@H]2C[C@@H](O)CN2C(=O)[C@H](C(C)C)n2cc(-c3ccc(COc4c(-c5c(C)c(F)cc6[nH]ncc56)c(C5CC5)cc5c(N6C[C@@H]7C[C@H]6CN7)nc(O[C@@H]6CCOC6)nc45)cc3)nn2)cc1 [Example 28] ?
Ans. 0.045

Qu. Likewise for Cc1ncsc1-c1ccc([C@H](CO)NC(=O)[C@@H]2C[C@@H](O)CN2C(=O)[C@H](C(C)C)n2cc(-c3ccc(COc4c(-c5c(C)c(F)cc6[nH]ncc56)c(C5CC5)cc5c(N6C[C@@H]7C[C@H]6CN7)nc(O[C@H]6CCOC6)nc45)cc3)nn2)cc1 [Example 29] ?
Ans. 0.033

====

The following molecules are shown together with reported DC50 values.
Molecular target: KRAS G12D (Homo sapiens, UniProt P01116, G12D)
Construct: host or cells: AsPC-1 human pancreatic cancer cells
Assay: Test Example 1-2: KRAS degradation action in AsPC-1, Cell ELISA
Format: cell-based
Conditions: AsPC-1 cells, overnight treatment, corrected with β-actin, 0% = 10 μM Example No. 26 (Example No. 8 for Example Nos. 74 and 75)
Provide only the numeric value, understood in nM.

Past entries and their recorded results:
1. Cc1ncsc1-c1ccc([C@H](CO)NC(=O)[C@@H]2C[C@@H](O)CN2C(=O)[C@H](C(C)C)n2cc(-c3ccc(COc4c(-c5c(C)c(F)cc6[nH]ncc56)c(C5CC5)cc5c(N6C[C@@H]7C[C@H]6CN7)nc(OCC67CCCN6CCC7)nc45)cc3)nn2)cc1 [Example 44]; 111
2. Cc1ncsc1-c1ccc([C@H](CO)NC(=O)[C@@H]2C[C@@H](O)CN2C(=O)[C@@H](NC(=O)C[C@@H]2CCN(C(=O)c3ccc(COc4c(-c5c(C)c(F)cc6[nH]ncc56)c(C5CC5)cc5c(N6C[C@@H]7C[C@H]6CN7)nc(OC6CCOCC6)nc45)cc3)C2)C(C)C)cc1 [Example 75]; 5890
3. Cc1ncsc1-c1ccc([C@H](CO)NC(=O)[C@@H]2C[C@@H](O)CN2C(=O)[C@H](C(C)C)n2cc(-c3ccc(COc4c(-c5c(C)c(F)cc6[nH]ncc56)c(C5CC5)cc5c(N6C[C@@H]7C[C@H]6CN7)nc(O[C@@H](C)[C@H](C)O)nc45)cc3)nn2)cc1 [Example 42]; 6

Qu. Given the molecule COCC1(COc2nc(N3C[C@@H]4C[C@H]3CN4)c3cc(C4CC4)c(-c4c(C)c(F)cc5[nH]ncc45)c(OCc4ccc(-c5cn([C@H](C(=O)N6C[C@H](O)C[C@H]6C(=O)N[C@@H](CO)c6ccc(-c7scnc7C)cc6)C(C)C)nn5)cc4)c3n2)CC1 [Example 62] , what is its reported DC50?
Ans. 10

Qu. Likewise for COC[C@H](CN1CCOCC1)Oc1nc(N2C[C@@H]3C[C@H]2CN3)c2cc(C3CC3)c(-c3c(C)c(F)cc4[nH]ncc34)c(OCc3ccc(-c4cn([C@H](C(=O)N5C[C@H](O)C[C@H]5C(=O)N[C@@H](CO)c5ccc(-c6scnc6C)cc5)C(C)C)nn4)cc3)c2n1 [Example 55] ?
Ans. 24

Qu. Likewise for Cc1ncsc1-c1ccc([C@H](CO)NC(=O)[C@@H]2C[C@@H](O)CN2C(=O)[C@H](C(C)C)n2cc(-c3ccc(COc4c(-c5c(C)c(F)cc6[nH]ncc56)c(C5CC5)cc5c(N6C[C@@H]7C[C@H]6CN7)nc(OCC6(CO)CC6)nc45)cc3)nn2)cc1 [Example 61] ?
Ans. 21

Qu. Likewise for Cc1ncsc1-c1ccc([C@H](CO)NC(=O)[C@@H]2C[C@@H](O)CN2C(=O)[C@H](C(C)C)n2cc(-c3ccc(COc4c(-c5c(C)c(F)cc6[nH]ncc56)c(C5CC5)cc5c(N6C[C@@H]7C[C@H]6CN7)nc(OC[C@H](C)N6CCCC6)nc45)cc3)nn2)cc1 [Example 64] ?
Ans. 48

Qu. Likewise for Cc1ncsc1-c1ccc([C@H](CO)NC(=O)[C@@H]2C[C@@H](O)CN2C(=O)[C@H](C2CC2)n2cc(-c3ccc(COc4c(-c5c(C)c(F)cc6[nH]ncc56)c(C5CC5)cc5c(N6C[C@@H]7C[C@H]6CN7)nc(OC6CCOCC6)nc45)cc3)nn2)cc1 [Example 73] ?
Ans. 134
